Reported values of pIC50 for individual entries
Tested on: NCI-H358 (K-Ras G12C)
Assay text: CellTiter-Glo cell viability assay, 5-day treatment
Assay type: cell-based
Measurement context: Homo sapiens, NCI-H358, H358, K-Ras G12C; read-out: Additional H358 Cell Viability assay data (K-Ras G12C, IC50)
pIC50: −log10 of the molar value.

In: For the compound CC#CC(=O)N1CC[C@H](C(=O)N(C)[C@H](C(=O)N[C@H]2Cc3nc(cs3)-c3ccc4c(c3)c(c(-c3cccnc3[C@H](C)OC)n4CC)CC(C)(C)COC(=O)[C@@H]3CCCN(N3)C2=O)C(C)C)C1 [Example A168] , give its measured pIC50 value.
Out: 7.00 to 8.00

Next:
In: Supply measured pIC50 of C=CC(=O)N1CCC2(C1)CN(C(=O)N(C)[C@H](C(=O)N[C@H]1Cc3nc(cs3)-c3ccc4c(c3)c(c(-c3cccnc3[C@H](C)OC)n4CC(F)(F)F)CC(C)(C)COC(=O)C3CCCN(N3)C1=O)C(C)C)C2 (stereo partly shown) [Example A603] in your reply.
Out: 7.00 to 8.00

In: State its pIC50: CCn1c(-c2cccnc2[C@H](C)OC)c2c3cc(ccc31)N1CCC[C@@H](C[C@H](NC(=O)[C@H](C(C)C)N(C)C(=O)C3CCN(C(=O)C#CC(C)(C)N4CCC4)C3)C(=O)N3CCCC(N3)C(=O)OCC(C)(C)C2)C1 (stereo partly shown) [Example A617]
Out: 7.00 to 8.00

In: Find the measured pIC50 of C=CC(=O)N1CC[C@H](C(=O)N(C)[C@H](C(=O)N[C@H]2C[C@H]3CN(CCO3)c3ccc4c(c3)c(c(-c3cccnc3[C@H](C)OC)n4CC)CC(C)(C)COC(=O)[C@@H]3CCCN(N3)C2=O)C(C)C)C1 (racemic) [Example A507] and report it.
Out: 6.00 to 7.00

----------
Target or system: KRAS G13D (Homo sapiens, UniProt P01116+P62937, G13D)
Sequence (P01116 1-169 isoform P01116-2 G13D limits assumed): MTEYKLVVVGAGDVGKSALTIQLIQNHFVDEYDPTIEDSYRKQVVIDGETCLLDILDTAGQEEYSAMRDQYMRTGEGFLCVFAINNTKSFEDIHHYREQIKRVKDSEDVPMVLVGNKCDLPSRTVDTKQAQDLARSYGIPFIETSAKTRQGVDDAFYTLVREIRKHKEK
Sequence (P62937 whole entry): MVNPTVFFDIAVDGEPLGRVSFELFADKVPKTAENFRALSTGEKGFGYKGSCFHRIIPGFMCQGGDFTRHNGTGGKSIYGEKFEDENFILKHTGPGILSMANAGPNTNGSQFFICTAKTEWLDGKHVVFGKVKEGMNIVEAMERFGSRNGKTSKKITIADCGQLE
Assay text: Disruption of BRAF RBD interaction with Ras (FRET / MOA assay, with Cyclophilin A)
Format: biochemical
Measurement context: KRAS G13D; read-out: KRAS G13D FRET data IC50
Excerpt: This protocol may also be executed substituting other Ras proteins or nucleotides. The purpose of this biochemical assay was to measure the ability of test compounds to facilitate ternary complex formation between a nucleotide-loaded K-Ras isoform and Cyclophilin A; the resulting ternary complex disrupts binding to a BRAF^RBD construct, inhibiting K-Ras signaling through a RAF effector. Data is reported as IC50 values. […]
Value type: IC50

Before answering, review these 3 worked examples.
In: Provide IC50 value for the following compound: CCn1c(-c2cccnc2[C@H](C)OC)c2c3cc(ccc31)-c1csc(n1)C[C@H](NC(=O)[C@H](C(C)C)N(C)C(=O)N1CC3(CC(N4CCOCC4)C3)C1)C(=O)N1CCC[C@H](N1)C(=O)OCC(C)(C)C2 (atropisomer, axis not shown) [Example A486]
Out: 100 to 1000 nM

In: Return IC50 (reported value) for this compound: C=CC(=O)N1CC[C@@]2(CCN2C(=O)N(C)[C@H](C(=O)N[C@H]2Cc3nc(cs3)-c3ccc4c(c3)c(c(-c3cccnc3[C@H](C)OC)n4CC)CC(C)(C)COC(=O)C3CCCN(N3)C2=O)N(C)C)C1 (single isomer, unassigned) [Example A661]
Out: 100 to 1000 nM

In: Give the reported IC50 for this compound. CCn1c(-c2cccnc2[C@H](C)OC)c2c3cc(ccc31)-c1csc(n1)C[C@H](NC(=O)[C@H](C(C)C)N(C)C(=O)N1CC(NC)C1)C(=O)N1CCC[C@H](N1)C(=O)OCC(C)(C)C2 (atropisomer, axis not shown) [Example A337]
Out: 100 to 1000 nM

# input for lookup
In: Given CCn1c(-c2cccnc2[C@H](C)OC)c2c3cc(ccc31)-c1csc(n1)C[C@H](NC(=O)[C@H](C(C)C)N(C)C(=O)[C@H]1CCN(C(=O)C(C)(C)N(C)C)C1)C(=O)N1CCC[C@H](N1)C(=O)OCC(C)(C)C2 [Example A113] , respond with its IC50.
Out: 1000 to 10000 nM

----------
Reported values of IC50 for individual entries
Target or system: KRAS G12C (Homo sapiens, UniProt P01116+P62937, G12C)
Sequence (P01116 1-169 isoform P01116-2 G12C limits assumed, one chain of several): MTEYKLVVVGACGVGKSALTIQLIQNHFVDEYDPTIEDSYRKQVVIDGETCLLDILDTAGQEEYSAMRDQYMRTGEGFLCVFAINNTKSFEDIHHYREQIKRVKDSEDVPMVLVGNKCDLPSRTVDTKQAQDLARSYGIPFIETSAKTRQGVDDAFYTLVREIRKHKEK
Assay text: Ras-Raf disruption / FRET / MOA assay (BRAF RBD)
Assay type: biochemical
Measurement context: KRAS G12C FRET data IC50, Ras-Raf disruption, with Cyclophilin A

In: State recorded IC50 with KRAS G12C (Homo sapiens, UniProt P01116+P62937, G12C), entry CCn1c(-c2cccnc2[C@H](C)OC)c2c3cc(ccc31)-c1cc(O)cc(c1)C[C@H](NC(=O)[C@H](C(C)C)N(C)C(=O)[C@]13C[C@H]1CCN3C(=O)[C@@H]1CN1)C(=O)N1CCC[C@H](N1)C(=O)OCC(C)(C)C2 , no comment.
Out: 100 to 1000 nM

---
In: Lab note: KRAS G12C (Homo sapiens, UniProt P01116+P62937, G12C) assay, enter IC50 for CCn1c(-c2cccnc2[C@H](C)OC)c2c3cc(ccc31)-c1cc(O)cc(c1)C[C@H](NC(=O)[C@H](C(C)C)N(C)C(=O)CN(C)C(=O)[C@H]1CN1CCCN1CCOC1=O)C(=O)N1CCC[C@H](N1)C(=O)OCC(C)(C)C2 (stereo partly shown) here
Out: < 10 nM

In: Report value: IC50, system: KRAS G12C (Homo sapiens, UniProt P01116+P62937, G12C), compound: CCn1c(-c2cccnc2[C@H](C)OC)c2c3cc(ccc31)-c1cc(O)cc(c1)C[C@H](NC(=O)[C@H](C1CCCC1)N(C)C(=O)CN(C)C(=O)[C@H]1[C@@H](C3CC3)N1CCCOC)C(=O)N1CCC[C@H](N1)C(=O)OCC(C)(C)C2 (stereo partly shown)
Out: 10 to 100 nM

In: For KRAS G12C (Homo sapiens, UniProt P01116+P62937, G12C), give the measured IC50 of the entry CCn1c(-c2cccnc2[C@H](C)OC)c2c3cc(ccc31)-c1cc(O)cc(c1)C[C@H](NC(=O)[C@H](C1CCCC1)N(C)C(=O)[C@@H](C)N(C)C(=O)[C@@H]1N[C@@H]1C1CC1)C(=O)N1CCC[C@H](N1)C(=O)OCC(C)(C)C2
Out: 1000 to 10000 nM

In: // output IC50; input CCn1c(-c2cccnc2[C@H](C)OC)c2c3cc(ccc31)-c1cc(O)cc(c1)C[C@H](NC(=O)[C@H](C(C)C)N(C)C(=O)CN(C)C(=O)[C@H]1N[C@@H]1C1CC1)C(=O)N1CCC[C@H](N1)C(=O)OCC(C)(C)C2 [Example 135] ; system KRAS G12C (Homo sapiens, UniProt P01116+P62937, G12C)
Out: < 10 nM

In: Provide IC50, system KRAS G12C (Homo sapiens, UniProt P01116+P62937, G12C), entry CCn1c(-c2cccnc2[C@H](C)OC)c2c3cc(ccc31)-c1cccc(c1)C[C@H](NC(=O)[C@H](C(C)C)N(C)C(=O)CN(C)C(=O)[C@H]1CN1)C(=O)N1CCC[C@H](N1)C(=O)OCC(C)(C)C2
Out: 100 to 1000 nM

In: Specify IC50 for CCn1c(-c2cccnc2[C@H](C)OC)c2c3cc(ccc31)-c1cc(O)cc(c1)C[C@H](NC(=O)[C@H](C(C)C)N(C)C(=O)CN(C)C(=O)[C@H]1N[C@@H]1C1COC1)C(=O)N1CCC[C@H](N1)C(=O)OCC(C)(C)C2 , system KRAS G12C (Homo sapiens, UniProt P01116+P62937, G12C).
Out: 10 to 100 nM

In: Write down the reported IC50 (system: KRAS G12C (Homo sapiens, UniProt P01116+P62937, G12C)) of CCn1c(-c2cccnc2[C@H](C)OC)c2c3cc(ccc31)-c1cc(O)cc(c1)C[C@H](NC(=O)[C@H](C(C)C)N(C)C(=O)CN(C)C(=O)[C@H]1CN1CC1COC1)C(=O)N1CCC[C@H](N1)C(=O)OCC(C)(C)C2 (stereo partly shown)
Out: 10 to 100 nM

In: Look up and report measured IC50 (KRAS G12C (Homo sapiens, UniProt P01116+P62937, G12C)) for the following compound: CCn1c(-c2cccnc2[C@H](C)OC)c2c3cc(ccc31)-c1cc(O)cc(c1)C[C@H](NC(=O)[C@H](C(C)C)N(C)C(=O)C13CC(CN1C(=O)[C@H]1CN1)C3)C(=O)N1CCC[C@H](N1)C(=O)OCC(C)(C)C2
Out: 100 to 1000 nM

In: Name the value of IC50 reported for CC[C@H]1N[C@H]1C(=O)N(C)CC(=O)N(C)[C@H](C(=O)N[C@H]1Cc2cc(O)cc(c2)-c2ccc3c(c2)c(c(-c2cccnc2[C@H](C)OC)n3CC)CC(C)(C)COC(=O)[C@@H]2CCCN(N2)C1=O)C(C)C when tested on KRAS G12C (Homo sapiens, UniProt P01116+P62937, G12C).
Out: 10 to 100 nM

In: Enter measured IC50, system KRAS G12C (Homo sapiens, UniProt P01116+P62937, G12C), for the compound shown: CCn1c(-c2cccnc2[C@H](C)OC)c2c3cc(ccc31)-c1cc(O)cc(c1)C[C@H](NC(=O)[C@H](C(C)C)N(C)C(=O)CN(C)C(=O)[C@@H]1N[C@H]1C1COC1)C(=O)N1CCC[C@H](N1)C(=O)OCC(C)(C)C2
Out: 10 to 100 nM

In: Tell me IC50 of CCn1c(-c2cccnc2[C@H](C)OC)c2c3cc(ccc31)-c1cc(O)cc(c1)C[C@H](NC(=O)[C@H](C(C)C)N(C)C(=O)[C@H](C)N(C)C(=O)[C@H]1CN1)C(=O)N1CCC[C@H](N1)C(=O)OCC(C)(C)C2 when tested on KRAS G12C (Homo sapiens, UniProt P01116+P62937, G12C).
Out: 10 to 100 nM

In: Specify IC50 for CCn1c(-c2cccnc2[C@H](C)OC)c2c3cc(ccc31)-c1cc(O)cc(c1)C[C@H](NC(=O)[C@H](C(C)C)N(C)C(=O)C13CC(CN1C(=O)[C@@H]1CN1)C3)C(=O)N1CCC[C@H](N1)C(=O)OCC(C)(C)C2 , system KRAS G12C (Homo sapiens, UniProt P01116+P62937, G12C).
Out: 100 to 1000 nM

In: Lab note: KRAS G12C (Homo sapiens, UniProt P01116+P62937, G12C) assay, enter IC50 for CCn1c(-c2cccnc2[C@H](C)OC)c2c3cc(ccc31)-c1csc(n1)C[C@H](NC(=O)[C@H](C1CCCC1)N(C)C(=O)CN(C)C(=O)[C@H]1CN1)C(=O)N1CCC[C@H](N1)C(=O)OCC(C)(C)C2 here
Out: 100 to 1000 nM

In: Look up KRAS G12C (Homo sapiens, UniProt P01116+P62937, G12C) data: IC50 of CCn1c(-c2cccnc2[C@H](C)OC)c2c3cc(ccc31)-c1cc(O)cc(c1)C[C@H](NC(=O)[C@H](C(C)C)N(C)C(=O)[C@H]1CC[C@@H](C)N1C(=O)[C@@H]1CN1)C(=O)N1CCC[C@H](N1)C(=O)OCC(C)(C)C2 , then report it.
Out: 10 to 100 nM

In: Provide KRAS G12C (Homo sapiens, UniProt P01116+P62937, G12C) IC50 reading for CCn1c(-c2cccnc2[C@H](C)OC)c2c3cc(ccc31)-c1cc(O)cc(c1)C[C@H](NC(=O)[C@H](C1CCCC1)N(C)C(=O)CN(C)C(=O)[C@@H]1N[C@@H]1C1(C#N)CC1)C(=O)N1CCC[C@H](N1)C(=O)OCC(C)(C)C2 (single isomer, unassigned) .
Out: 10 to 100 nM
